Read-out: MicroRNA 122 (MIR122), gene 406906
protocol: LTEA_HepaRG_MIR122: Life Technologies and Expression Analysis (LTEA) Assay for MicroRNA 122 (MIR122) using HepaRG (AID 2283516)
test_context: mRNA level, 48 h; actives raise or lower the signal
Activity calls are given as the source filed them. How the source made its calls: active means hit-call score of the fitted dose curve at least 0.9, where 1 is the maximum; inactive means score below 0.9.
Bench note: report the call from active, inactive

Past entries and their recorded results:
CC(C)Oc1cccc(NC(=O)c2ccccc2C(F)(F)F)c1 inactive
Cn1c(-c2ccccc2)cc(-c2ccccc2)[n+]1C active
CC(C)N1C(=O)c2ccccc2NS1(=O)=O inactive
N#Cc1c[nH]cc1-c1cccc2c1OC(F)(F)O2 inactive
COC(=O)N(C(=O)N1CO[C@@]2(C(=O)OC)Cc3cc(Cl)ccc3C2=N1)c1ccc(OC(F)(F)F)cc1 active

Please examine the following record next.
Which outcome did this test record for the compound Clc1nc(Cl)nc(Nc2ccccc2Cl)n1 ?
inactive
